Assign PBM binding z-score to each entry below.
# Test system: PPARg:RXRa 270nM:90nM, anti-RXR (NR concentration 270 nM, RXRa partner concentration 90 nM)
# ASSAY_METHOD_TEXT: PBM binding z-score (relative to random genomic background probes); higher = stronger binding; sequences stand for … in GC…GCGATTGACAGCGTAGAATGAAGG

Below are worked cases with known answers.
>  <SEQUENCE_CONTENT>
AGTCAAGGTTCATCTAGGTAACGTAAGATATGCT

>  <PBM binding z-score>
3.68

$$$$
>  <SEQUENCE_CONTENT>
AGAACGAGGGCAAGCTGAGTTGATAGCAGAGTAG

>  <PBM binding z-score>
1.19

$$$$

# map each sequence to its PBM binding z-score
1. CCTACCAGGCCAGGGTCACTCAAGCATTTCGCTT
2. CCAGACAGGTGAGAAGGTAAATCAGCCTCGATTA
3. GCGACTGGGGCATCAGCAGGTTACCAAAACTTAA
4. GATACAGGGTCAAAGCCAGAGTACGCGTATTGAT

[1.61, 0.456, 0.743, 5.39]

# map each sequence to its PBM binding z-score
1. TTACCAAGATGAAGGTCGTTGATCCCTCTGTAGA
2. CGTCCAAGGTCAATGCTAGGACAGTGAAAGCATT
3. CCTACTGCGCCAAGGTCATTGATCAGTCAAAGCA
4. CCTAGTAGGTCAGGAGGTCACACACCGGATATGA

1. 1.7
2. 4.09
3. 1.59
4. 7.34

----------
# Test system: RXRa DBDmut IVT, anti-RXR (DBD mutation: RXRa K156A/R161A, NR concentration 90 nM)
# ASSAY_METHOD_TEXT: PBM binding z-score (relative to random genomic background probes); higher = stronger binding; sequences stand for … in GC…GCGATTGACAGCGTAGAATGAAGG
READOUT: PBM binding z-score
Give bare numbers.

Below are worked cases with known answers.
>  <SEQUENCE_CONTENT>
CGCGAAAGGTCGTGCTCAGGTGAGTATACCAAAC

>  <PBM binding z-score>
2.19

$$$$
>  <SEQUENCE_CONTENT>
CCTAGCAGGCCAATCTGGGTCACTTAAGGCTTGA

>  <PBM binding z-score>
-0.0983

$$$$
>  <SEQUENCE_CONTENT>
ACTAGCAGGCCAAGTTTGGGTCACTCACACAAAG

>  <PBM binding z-score>
0.307

$$$$

# map each sequence to its PBM binding z-score
1. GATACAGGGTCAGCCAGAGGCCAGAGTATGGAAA
2. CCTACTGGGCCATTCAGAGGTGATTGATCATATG
3. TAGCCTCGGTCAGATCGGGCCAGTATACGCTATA
4. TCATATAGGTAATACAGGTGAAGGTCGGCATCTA
5. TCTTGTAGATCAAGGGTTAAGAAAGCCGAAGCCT

1. 1.17
2. -0.252
3. -1.02
4. 1.69
5. 0.293

# map each sequence to its PBM binding z-score
1. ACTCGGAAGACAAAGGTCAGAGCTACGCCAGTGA
2. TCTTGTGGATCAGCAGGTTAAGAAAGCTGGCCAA

0.211
0.589

# map each sequence to its PBM binding z-score
1. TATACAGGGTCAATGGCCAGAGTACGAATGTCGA
2. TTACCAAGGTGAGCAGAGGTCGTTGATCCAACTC

2.43
-0.0246

----------
# System: THRa:RXRa (NR concentration 90 nM, RXRa partner concentration 90 nM)
# ASSAY_METHOD_TEXT: PBM binding z-score (relative to random genomic background probes); higher = stronger binding; sequences stand for … in GC…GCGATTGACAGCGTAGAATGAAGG
Assign PBM binding z-score to each entry below.
One number for each entry.

Below are worked cases with known answers.
>  <SEQUENCE_CONTENT>
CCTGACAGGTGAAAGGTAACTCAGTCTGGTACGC

>  <READOUT_VALUE>
0.905

$$$$
>  <SEQUENCE_CONTENT>
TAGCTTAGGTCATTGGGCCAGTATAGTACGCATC

>  <READOUT_VALUE>
3.37

$$$$
>  <SEQUENCE_CONTENT>
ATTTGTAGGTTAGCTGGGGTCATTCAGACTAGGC

>  <READOUT_VALUE>
5.34

$$$$
>  <SEQUENCE_CONTENT>
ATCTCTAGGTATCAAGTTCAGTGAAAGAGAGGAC

>  <READOUT_VALUE>
1.03

$$$$
>  <SEQUENCE_CONTENT>
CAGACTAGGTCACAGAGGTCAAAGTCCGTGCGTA

>  <READOUT_VALUE>
4.6

$$$$
>  <SEQUENCE_CONTENT>
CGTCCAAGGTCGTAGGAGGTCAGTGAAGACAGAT

>  <READOUT_VALUE>
4.89

$$$$

# map each sequence to its PBM binding z-score
1. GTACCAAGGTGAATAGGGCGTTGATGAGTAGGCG
2. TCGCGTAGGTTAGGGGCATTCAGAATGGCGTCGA
3. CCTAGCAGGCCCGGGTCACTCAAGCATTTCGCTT

[1.36, 0.842, 2.71]

----------
# Tested on: RARa homodimer (NR concentration 270 nM)
# ASSAY_METHOD_TEXT: PBM binding z-score (relative to random genomic background probes); higher = stronger binding; sequences stand for … in GC…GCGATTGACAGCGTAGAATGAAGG
# thresholds on PBM binding z-score define classes: group 1 = under 0.08, group 2 = from 0.08 up to 0.9, group 3 = 0.9 and over

Take a look at these entries with their results.
>  <SEQUENCE_CONTENT>
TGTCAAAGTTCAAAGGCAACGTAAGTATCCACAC

>  <TARGET_OR_TEST_SYSTEM>
RARa homodimer (NR concentration 270 nM)

>  <CAT>
group 3

$$$$
>  <SEQUENCE_CONTENT>
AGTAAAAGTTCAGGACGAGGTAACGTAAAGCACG

>  <TARGET_OR_TEST_SYSTEM>
RARa homodimer (NR concentration 270 nM)

>  <CAT>
group 3

$$$$
>  <SEQUENCE_CONTENT>
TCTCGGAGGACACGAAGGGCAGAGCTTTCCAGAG

>  <TARGET_OR_TEST_SYSTEM>
RARa homodimer (NR concentration 270 nM)

>  <CAT>
group 1

$$$$

Lab log: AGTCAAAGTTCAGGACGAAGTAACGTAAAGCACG — assign PBM binding z-score category
group 3

Lab log: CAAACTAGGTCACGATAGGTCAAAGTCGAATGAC — assign PBM binding z-score category
group 3

Lab log: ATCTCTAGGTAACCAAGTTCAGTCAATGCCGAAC — assign PBM binding z-score category
group 3

----------
# Tested on: RARg:RXRa (NR concentration 270 nM, RXRa partner concentration 90 nM)
# ASSAY_METHOD_TEXT: PBM binding z-score (relative to random genomic background probes); higher = stronger binding; sequences stand for … in GC…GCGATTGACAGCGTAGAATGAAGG
Note to self: values exactly at 2 are TRUE. So PBM binding z-score at or above 2 is TRUE, below is FALSE.

Take a look at these entries with their results.
>  <SEQUENCE_CONTENT>
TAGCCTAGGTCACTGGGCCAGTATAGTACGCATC

>  <CAT>
TRUE

$$$$
>  <SEQUENCE_CONTENT>
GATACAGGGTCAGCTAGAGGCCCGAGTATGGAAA

>  <CAT>
TRUE

$$$$
>  <SEQUENCE_CONTENT>
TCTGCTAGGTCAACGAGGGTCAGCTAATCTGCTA

>  <CAT>
TRUE

$$$$
>  <SEQUENCE_CONTENT>
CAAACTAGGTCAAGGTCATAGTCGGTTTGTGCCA

>  <CAT>
TRUE

$$$$

Has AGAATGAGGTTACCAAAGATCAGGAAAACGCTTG a recorded PBM binding z-score greater than or equal to 2?
TRUE

Has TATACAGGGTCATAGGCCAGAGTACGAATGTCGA a recorded PBM binding z-score greater than or equal to 2?
TRUE

Has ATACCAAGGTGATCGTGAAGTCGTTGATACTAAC a recorded PBM binding z-score greater than or equal to 2?
FALSE

----------
# System: RARg:RXRa (NR concentration 270 nM, RXRa partner concentration 90 nM)
# ASSAY_METHOD_TEXT: PBM binding z-score (relative to random genomic background probes); higher = stronger binding; sequences stand for … in GC…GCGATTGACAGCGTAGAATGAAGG
READOUT: PBM binding z-score
Answers are plain numbers.

# map each sequence to its PBM binding z-score
1. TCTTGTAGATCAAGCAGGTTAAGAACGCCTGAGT
2. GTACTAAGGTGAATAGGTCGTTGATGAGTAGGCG
3. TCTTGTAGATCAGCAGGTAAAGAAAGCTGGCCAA
4. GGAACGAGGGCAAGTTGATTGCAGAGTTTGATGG
5. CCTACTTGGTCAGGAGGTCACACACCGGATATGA
6. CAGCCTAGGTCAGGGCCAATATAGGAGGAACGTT
7. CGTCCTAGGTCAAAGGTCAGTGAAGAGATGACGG

[0.0271, 3.3, -0.342, 1.62, 4.98, 3.05, 7.97]

# map each sequence to its PBM binding z-score
1. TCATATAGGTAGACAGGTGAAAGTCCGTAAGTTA
2. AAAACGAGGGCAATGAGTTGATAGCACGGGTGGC
3. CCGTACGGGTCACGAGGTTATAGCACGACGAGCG
4. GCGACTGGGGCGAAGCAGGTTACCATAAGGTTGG
5. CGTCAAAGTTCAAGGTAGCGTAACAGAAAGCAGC
6. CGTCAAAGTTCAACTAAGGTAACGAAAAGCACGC

[0.378, 1.23, 6.39, -0.0926, 5.41, 5.98]
